# ASSAY_DETAILS: Apparent volume of distribution in Sprague-Dawley rat at 5 mg/kg, iv
# Format: ADME, organism-based
# TEST_CONTEXT: in vivo, read-out: Vz
QUANTITY_KIND: Vd (L/kg)
Numbers only here, please. The scale is L/kg.

IN: Any idea what its Vd is? The compound is Cn1c(=O)c2c(ncn2CCC(=O)NNC(=O)c2cc3nccc(-c4ccc(OC(F)F)c(OCC5CC5)c4)n3n2)n(C)c1=O
OUT: 8.79

---

# ASSAYED_TARGET: Dual specificity calcium/calmodulin-dependent 3',5'-cyclic nucleotide phosphodiesterase 1A (Homo sapiens)
# Sequence (P54750 whole entry): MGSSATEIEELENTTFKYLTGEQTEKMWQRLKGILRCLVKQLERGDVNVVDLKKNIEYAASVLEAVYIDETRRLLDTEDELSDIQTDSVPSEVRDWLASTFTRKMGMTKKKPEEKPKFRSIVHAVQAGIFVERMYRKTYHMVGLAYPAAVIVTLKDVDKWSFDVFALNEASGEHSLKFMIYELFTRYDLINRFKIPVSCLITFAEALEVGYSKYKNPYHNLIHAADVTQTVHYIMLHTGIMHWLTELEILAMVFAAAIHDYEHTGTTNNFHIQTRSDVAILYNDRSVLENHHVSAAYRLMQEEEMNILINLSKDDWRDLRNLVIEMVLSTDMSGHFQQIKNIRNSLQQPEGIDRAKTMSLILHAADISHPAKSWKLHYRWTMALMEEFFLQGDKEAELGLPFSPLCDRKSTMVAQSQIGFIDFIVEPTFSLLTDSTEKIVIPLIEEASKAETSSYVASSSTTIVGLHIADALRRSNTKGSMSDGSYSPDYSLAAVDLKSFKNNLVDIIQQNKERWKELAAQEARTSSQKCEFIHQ
# ASSAY_DETAILS: Inhibition of PDE1A (unknown origin)
pIC50: −log10 of the molar value.
QUANTITY_KIND: pIC50

IN: # query: pIC50 of entry Cn1c(=O)c2c(ncn2CCC(=O)NNC(=O)c2cc3nccc(-c4ccc(OC(F)F)c(OCC5CC5)c4)n3n2)n(C)c1=O
OUT: < 4.30
